assayProtocol: S. pneumoniae DPM-DC inhibitor potency, dose response, biochemical, PK/LDH-coupled NADH fluorescence, hexokinase coupling counter-screen (AID 550)
particulars: purified DPM-DC, measured here: coupling enzymes counter-screen (hexokinase)
# label = bin(measured IC50), where bins are band A (below 20 µM), band B (20 µM to below 50 µM), band C (50 µM or more)

Q) Hey, which category is `CN(C)[C@@H]1C(=O)C(C(N)=O)=C(O)[C@@]2(O)C(=O)C3=C(O)c4c(O)cccc4[C@@](C)(O)[C@H]3[C@H](O)[C@@H]12` in, do you know?
A) band C

Q) For `CC(/C=N/n1cnnc1)=C\c1ccco1` , which IC50 bin applies?
A) band C

Q) # classify by IC50 band: `O=c1c2ccccc2[se]n1-c1ccccc1`
A) band B

Q) Would you mind sorting `Nc1nc2c(s1)CCc1c-2cnn1-c1ccccc1` into the appropriate category?
A) band B

Q) Classify this molecule: `Clc1cccc(-c2ccc(/C=N/n3cnnc3)o2)c1`
A) band C

Q) Category of `CCn1nc(-c2cccs2)nc2c(=O)n(C)c(=O)nc1-2` :
A) band A

Q) Class (by measured IC50) for `CCN(CC)c1ccc(/C=N/n2c(=S)[nH]nc(C)c2=O)cc1`
A) band B

Q) Sort into band: `CCn1nc(-c2ccccc2)nc2c(=O)n(C)c(=O)nc1-2`
A) band A

Q) Returns: class label. Input: `O=C(O)c1cccn2c(=O)c3ccccc3nc12`
A) band C

* * *

experimentalSystem: diphosphomevalonate decarboxylase (Streptococcus pneumoniae D39)
assayProtocol: S. pneumoniae DPM-DC inhibitor potency, dose response, biochemical, PK/LDH-coupled NADH fluorescence, hexokinase coupling counter-screen (AID 550)
particulars: purified DPM-DC
Calls of active or inactive are those of the source.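 The calls were made as follows: active = clearly stronger inhibition of the target decarboxylase than of the coupling enzymes tested in parallel without it; inactive = the rest.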
Parameter call: string, one of true (1) = active, false (0) = inactive

Q) Check the results log: what was the call for `CCOC(=O)C1=C(C)NC(C)=C(C(=O)OCC)C1c1cc2ccc(C)cc2[nH]c1=O` ?
A) true (1)

Q) In this assay, the call recorded for COc1ccccc1NC(=O)C1=C(C)NC2=C(C(=O)CCC2)C1c1ccc2c(c1)OCO2 (stereo unspecified) was what?
A) true (1)

Q) Hi team, can someone confirm the assay call for `CN(C)[C@@H]1C(=O)C(C(N)=O)=C(O)[C@@]2(O)C(=O)C3=C(O)c4c(O)cccc4[C@@](C)(O)[C@H]3[C@H](O)[C@@H]12` ?
A) false (0)

Q) I'd appreciate the recorded outcome for CC1=C(C(=O)OCC2CCCO2)C(c2ccncc2)C2=C(CCCC2=O)N1 (stereo unspecified) from this test.
A) false (0)

Q) Please share the test call associated with `COc1cc2c(cc1OC)/C(=C/C(=O)N1CCOCC1)NC(C)(C)C2` .
A) true (1)

Q) Recorded test call requested for Cc1ccc(C2C3CN(C(C)C)CC=C3C(C#N)=C(N)C2(C#N)C#N)cc1 (stereo unspecified)
A) true (1)

Data provenance: PubChem BioAssay AID550
